Each recorded value in this set is attributed to the supplement of paper PMC12494721.

system: Escherichia coli IAI1; assay: growth (OD595) fold change vs plate DMSO controls (fold change (ratio)); higher = more growth; conditions: incubation time: 27 h, anaerobic, 37 °C
Counter-ions that a name gives are not always drawn.
Answer condition not met if growth is under 1, and condition met if it is 1 or more.

MOLECULE	ANSWER_LABEL
O=C1NCCN1c1ncc([N+](=O)[O-])s1 [Niridazole] (20 µM)	condition met
COc1cc(-c2ccc(=O)[nH]n2)ccc1OC(F)F [Zardaverine] (20 µM)	condition not met
COc1cc(OC)c(C(=O)CCCN2CCCC2)c(OC)c1 [Buflomedil hydrochloride] (20 µM)	condition met

###

system: Clostridium sporogenes DSM 1664; test: fold change of Tryptamine concentration vs plate DMSO controls (fold change (ratio)); higher = more amine produced, active = hit call of the paper (significant change in both replicates, either direction); conditions: incubation time: 27 h, anaerobic, 37 °C;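 for the amine columns active = adjusted P below 0.05 in both replicates with a change the same way and a mean fold change under 0.8 or over 1.25; inactive = the rest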
Structures can show the parent of a compound that is named as a salt.
Outcomes: Y for active, N for inactive

COMPOUND	ANSWER_LABEL
C=CC1=C(C(=O)O)N2C(=O)[C@@H](NC(=O)/C(=N\OCC(=O)O)c3csc(N)n3)[C@H]2SC1 [Cefixime] (20 µM)	N
CCCSS/C(CCO)=C(/C)N(C=O)Cc1cnc(C)nc1N [Prosultiamine] (20 µM)	N
CN1C(C(=O)Nc2ccccn2)=C(O)c2ccccc2S1(=O)=O [Piroxicam] (20 µM)	N
CC1(C)S[C@@H]2[C@H](NC(=O)[C@H](N)c3ccccc3)C(=O)N2[C@H]1C(=O)OC1OC(=O)c2ccccc21 (stereo partly specified) [Talampicillin hydrochloride] (20 µM)	Y
CC(=O)O[C@@]12CO[C@@H]1C[C@H](O)[C@@]1(C)C(=O)[C@H](O)C3=C(C)[C@@H](OC(=O)[C@H](O)[C@@H](NC(=O)OC(C)(C)C)c4ccccc4)C[C@@](O)([C@@H](OC(=O)c4ccccc4)[C@H]21)C3(C)C [Docetaxel] (20 µM)	N
CCOc1ccc2ccccc2c1C(=O)N[C@@H]1C(=O)N2[C@@H]1SC(C)(C)[C@@H]2C(=O)O [Nafcillin sodium salt monohydrate] (20 µM)	Y
CC[N+](C)(C)Cc1ccccc1Br [Bretylium tosylate] (20 µM)	N
CC[C@H](C)[C@H](NC(=O)[C@H](Cc1ccc(O)cc1)NC(=O)[C@@H](NC(=O)[C@H](CCCN=C(N)N)NC(=O)[C@@H](N)CC(=O)O)C(C)C)C(=O)N[C@@H](Cc1cnc[nH]1)C(=O)N1CCC[C@H]1C(=O)N[C@@H](Cc1ccccc1)C(=O)O [Angiotensin II (Human) Trifluoroacetic acid salt] (20 µM)	N
CN(C/C=C/C#CC(C)(C)C)Cc1cccc2ccccc12 [Terbinafine] (20 µM)	N
CN1CCCN(C(c2ccccc2)c2ccc(Cl)cc2)CC1 (stereo unspecified) [Homochlorcyclizine dihydrochloride] (20 µM)	N
NC[C@H]1O[C@H](O[C@H]2[C@H](O[C@@H]3O[C@H](CO)[C@@H](O)[C@H]3O)[C@@H](O)[C@H](N)C[C@@H]2N)[C@H](N)[C@@H](O)[C@@H]1O [Ribostamycin sulfate salt] (20 µM)	N
C[C@H](CCC(=O)O)[C@H]1CC[C@H]2[C@@H]3C(=O)C[C@@H]4CC(=O)CC[C@]4(C)[C@H]3CC(=O)[C@]12C [Dehydrocholic acid] (20 µM)	N
CN(C)CCN1C(=O)c2ccccc2N(C)c2ccccc21 [Dibenzepine hydrochloride] (20 µM)	N
CCN(CC)CCNc1ccc(CO)c2sc3ccccc3c(=O)c12 [Hycanthone] (20 µM)	Y
C=CCOc1ccccc1OCC(O)CNC(C)C (stereo unspecified) [Oxprenolol hydrochloride] (20 µM)	N
c1ccc2c(c1)CCCC2C1=NCCN1 (stereo unspecified) [Tetrahydrozoline hydrochloride] (20 µM)	N
NS(=O)(=O)c1cc2c(cc1Cl)N=CNS2(=O)=O [Chlorothiazide] (20 µM)	N
CC=C(C)C(=O)OC1C(OC(C)=O)C2(CO)C(O)CC3(C)C(=CCC4C5(C)CCC(OC6OC(C(=O)O)C(OC7OC(CO)C(O)C(O)C7O)C(O)C6OC6OC(CO)C(O)C(O)C6O)C(C)(CO)C5CCC43C)C2CC1(C)C (stereo not drawn) [Beta-Escin] (20 µM)	N
COc1ccnc(C[S+]([O-])c2nc3cc(OC(F)F)ccc3[nH]2)c1OC (stereo unspecified) [Pantoprazole sodium] (20 µM)	N
Cc1c(O)c(=O)ccn1C [Deferiprone] (20 µM)	N
COc1ccccc1OCC(O)CO (stereo unspecified) [Guaifenesin] (20 µM)	N
CCOC(=O)O[C@]1(C(=O)COC(=O)CC)CC[C@H]2[C@@H]3CCC4=CC(=O)C=C[C@]4(C)[C@H]3[C@@H](O)C[C@@]21C [Prednicarbate] (20 µM)	N
COc1ccc(C[C@@H]2c3cc(OC)c(OC)cc3CC[N@+]2(C)CCC(=O)OCCCCCOC(=O)CC[N@@+]2(C)CCc3cc(OC)c(OC)cc3[C@H]2Cc2ccc(OC)c(OC)c2)cc1OC [Cisatracurium besylate] (20 µM)	N
Cc1ccccc1C(OCCN(C)C)c1ccccc1 (stereo unspecified) [Orphenadrine hydrochloride] (20 µM)	N
CS(=O)(=O)c1ccc(C2=C(c3ccccc3)C(=O)OC2)cc1 [Rofecoxib] (20 µM)	N
CC(=O)OC[C@H]1O[C@@H](n2ncc(=O)[nH]c2=O)[C@H](OC(C)=O)[C@@H]1OC(C)=O [Azaribine] (20 µM)	N
